target: CathepsinG, from human neutrophils (Homo sapiens, UniProt P08311); experiment: Enzymatic assay, cathepsin G; conditions: Cathepsin G IC50
Sequence (P08311 21-244): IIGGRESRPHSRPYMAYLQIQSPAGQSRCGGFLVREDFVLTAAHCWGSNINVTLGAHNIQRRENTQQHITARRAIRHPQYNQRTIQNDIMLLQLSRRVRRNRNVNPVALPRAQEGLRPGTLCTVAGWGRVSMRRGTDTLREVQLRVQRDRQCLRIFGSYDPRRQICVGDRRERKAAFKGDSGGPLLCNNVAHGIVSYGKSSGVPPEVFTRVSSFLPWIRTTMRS
Where a SMILES comes first, the peptide text is derived from it.
measurement.name: log10 IC50 (log10 of the value in nM)
A value of 2 here means IC50 of 100 in nM, since values are log10.

Item under review: CCCC[C@@H]1NC(=O)[C@H]([C@@H](C)O)NC(=O)[C@@H]2CSSC[C@H](NC(=O)[C@H]([C@@H](C)CC)NC(=O)[C@@H]3CCCN3C(=O)[C@@H]3CCCN3C(=O)[C@H](CC(=O)O)NC(=O)[C@H](CO)NC1=O)C(=O)N[C@@H](Cc1ccc(O)cc1)C(=O)N1CCC[C@@H]1C(=O)N1CCC[C@H]1C(=O)N[C@@H](Cc1ccccc1)C(=O)N2 [Ex. 23] (HELM PEPTIDE1{F.C.T.[Nle].S.D.P.P.I.C.Y.[dP].P}$PEPTIDE1,PEPTIDE1,2:R3-10:R3|PEPTIDE1,PEPTIDE1,1:R1-13:R2$$$V2.0) . Reported log10 IC50?
1.58

Item under review: CCCC[C@@H]1NC(=O)[C@@H]2CCCN2C(=O)[C@@H]2CCCN2C(=O)[C@H](CC(=O)O)NC(=O)[C@H](CO)NC(=O)[C@H](CCCCN)NC(=O)[C@H]([C@@H](C)O)NC(=O)[C@@H]2CSSC[C@H](NC1=O)C(=O)N[C@@H](CO)C(=O)N1CCC[C@@H]1C(=O)N1CCC[C@H]1C(=O)N[C@@H](Cc1ccccc1)C(=O)N2 [Ex. 15] (HELM PEPTIDE1{F.C.T.K.S.D.P.P.[Nle].C.S.[dP].P}$PEPTIDE1,PEPTIDE1,2:R3-10:R3|PEPTIDE1,PEPTIDE1,1:R1-13:R2$$$V2.0) . Reported log10 IC50?
1.75

Item under review: CC[C@H](C)[C@@H]1NC(=O)[C@@H]2CCCN2C(=O)[C@@H]2CCCN2C(=O)[C@H](CC(=O)O)NC(=O)[C@H](CN)NC(=O)[C@H](CCCCN)NC(=O)[C@H]([C@@H](C)O)NC(=O)[C@@H]2CSSC[C@H](NC1=O)C(=O)N[C@@H](CO)C(=O)N1CCC[C@@H]1C(=O)N1CCC[C@H]1C(=O)N[C@@H](Cc1ccccc1)C(=O)N2 [Ex. 25] (HELM PEPTIDE1{F.C.T.K.[NC[C@H](N[*:1])C(=O)[*:2]].D.P.P.I.C.S.[dP].P}$PEPTIDE1,PEPTIDE1,2:R3-10:R3|PEPTIDE1,PEPTIDE1,1:R1-13:R2$$$V2.0) . Reported log10 IC50?
2.01

Item under review: CC[C@H](C)[C@@H]1NC(=O)[C@@H]2CCCN2C(=O)[C@@H]2CCCN2C(=O)[C@H](CC(=O)O)NC(=O)[C@H](CO)NC(=O)[C@H](CCCCN)NC(=O)[C@H]([C@@H](C)O)NC(=O)[C@@H]2CSSC[C@H](NC1=O)C(=O)N[C@@H](CCCNC(=N)N)C(=O)N1CCC[C@@H]1C(=O)N1CCC[C@H]1C(=O)N[C@@H](C1CCCCC1)C(=O)N2 [Ex. 12] (HELM PEPTIDE1{[O=C([C@@H](N[*:1])C1CCCCC1)[*:2]].C.T.K.S.D.P.P.I.C.R.[dP].P}$PEPTIDE1,PEPTIDE1,2:R3-10:R3|PEPTIDE1,PEPTIDE1,1:R1-13:R2$$$V2.0) . Reported log10 IC50?
1.95

Item under review: CCCC[C@@H]1NC(=O)[C@@H]2CCCN2C(=O)[C@H]2CCCN2C(=O)[C@H](CC(N)=O)NC(=O)[C@@H]2CSSC[C@H](NC1=O)C(=O)N[C@@H]([C@@H](C)O)C(=O)N[C@@H](CCCCN)C(=O)N[C@@H](CO)C(=O)N[C@@H](CC(=O)O)C(=O)N1CCC[C@H]1C(=O)N1CCC[C@H]1C(=O)N[C@@H]([C@@H](C)CC)C(=O)N2 [Ex. 41] (HELM PEPTIDE1{[Nle].C.T.K.S.D.P.P.I.C.N.[dP].P}$PEPTIDE1,PEPTIDE1,2:R3-10:R3|PEPTIDE1,PEPTIDE1,1:R1-13:R2$$$V2.0) . Reported log10 IC50?
1.69

Item under review: CCCC[C@@H]1NC(=O)[C@H](CCC(N)=O)NC(=O)[C@H]2CCCN2C(=O)[C@H](Cc2ccc(O)cc2)NC(=O)[C@@H]2CSSC[C@H](NC1=O)C(=O)N[C@@H]([C@@H](C)O)C(=O)N[C@@H](C)C(=O)N[C@@H](CO)C(=O)N[C@@H]([C@@H](C)CC)C(=O)N1CCC[C@H]1C(=O)N1CCC[C@H]1C(=O)N[C@@H](CCC(N)=O)C(=O)N2 [Ex. 123] (HELM PEPTIDE1{[Nle].C.T.A.S.I.P.P.Q.C.Y.[dP].Q}$PEPTIDE1,PEPTIDE1,2:R3-10:R3|PEPTIDE1,PEPTIDE1,1:R1-13:R2$$$V2.0) . Reported log10 IC50?
4.55

Item under review: CCCC[C@@H]1NC(=O)[C@H](Cc2ccccc2)NC(=O)[C@H]2CCCN2C(=O)[C@H](Cc2ccc(O)cc2)NC(=O)[C@@H]2CSSC[C@H](NC1=O)C(=O)N[C@@H]([C@@H](C)O)C(=O)N[C@@H](C)C(=O)N[C@@H](CO)C(=O)N[C@@H]([C@@H](C)CC)C(=O)N1CCC[C@H]1C(=O)N1CCC[C@H]1C(=O)N[C@@H](CCC(N)=O)C(=O)N2 [Ex. 122] (HELM PEPTIDE1{[Nle].C.T.A.S.I.P.P.Q.C.Y.[dP].F}$PEPTIDE1,PEPTIDE1,2:R3-10:R3|PEPTIDE1,PEPTIDE1,1:R1-13:R2$$$V2.0) . Reported log10 IC50?
4.55

Item under review: CC[C@H](C)[C@@H]1NC(=O)[C@@H]2CCCN2C(=O)[C@@H]2CCCN2C(=O)[C@H](CC(=O)O)NC(=O)[C@H](CO)NC(=O)[C@H](CCCCN)NC(=O)[C@H]([C@@H](C)O)NC(=O)[C@@H]2CSSC[C@H](NC1=O)C(=O)N[C@@H](CO)C(=O)N[C@H](C)C(=O)N1CCC[C@H]1C(=O)N[C@@H](Cc1ccccc1)C(=O)N2 [Ex. 49] (HELM PEPTIDE1{F.C.T.K.S.D.P.P.I.C.S.[dA].P}$PEPTIDE1,PEPTIDE1,2:R3-10:R3|PEPTIDE1,PEPTIDE1,1:R1-13:R2$$$V2.0) . Reported log10 IC50?
1.91
